Assay: Equilibrium dialysis, unbound fraction in brain homogenate
Type: in vitro ADME, CD-1 mice
Conditions: CD-1, mouse, brain homogenate (10 % w/v), pH 7.4
metric.name: fraction unbound at 5 h, 1 μM

## Input # fraction unbound at 5 h, 1 μM lookup, item CC(C)NCC(O)COc1cccc2ccccc12 (stereo not drawn) [Propranolol]
## Output 0.022

## Input # fraction unbound at 5 h, 1 μM lookup, item CC(=O)CC(c1ccccc1)c1c(O)c2ccccc2oc1=O (stereo not drawn) [Warfarin]
## Output 0.281

Continue with the compound presented below.
## Input # fraction unbound at 5 h, 1 μM lookup, item CCOc1ccc(NC(C)=O)cc1 [Phenacetin]
## Output 0.442

====

Test: Ionized fraction at pH 7.4 calculated from pKa
Details: pH 7.4, Eq. (5), from literature basic pKa
A collection of compounds and their measured Ionized fraction fcation
Give only the figure.

## Input # Ionized fraction fcation lookup, item CCN1CCCC1CNC(=O)c1cc(S(N)(=O)=O)ccc1OC (stereo not shown) [Sulpiride]
## Output 0.9693

Next:
## Input # Ionized fraction fcation lookup, item COc1ccc2c3c1O[C@H]1C(=O)CC[C@H]4[C@@H](C2)N(C)CC[C@]314 [Hydrocodone]
## Output 0.9264

====

Type: in vivo, CD-1 mice
Conditions: CD-1, mouse, brain and plasma, intraperitoneal
A collection of compounds and their measured Kp uu at 2 h

## Input # Kp uu at 2 h lookup, item "CCOc1ccc(NC(C)=O)cc1"
## Output 0.55

## Input # Kp uu at 2 h lookup, item CC(C)NCC(O)COc1cccc2ccccc12 (stereo not shown)
## Output 3.08

## Input # Kp uu at 2 h lookup, item "C=C[C@H]1C[N@@]2CC[C@H]1C[C@@H]2[C@@H](O)c1ccnc2ccc(OC)cc12"
## Output 0.05

## Input # Kp uu at 2 h lookup, item CC(=O)CC(c1ccccc1)c1c(O)c2ccccc2oc1=O (stereo not shown)
## Output 0.19

====

Test: Ionized fraction at pH 7.4 calculated from pKa
Settings: pH 7.4, Eq. (5), from literature basic pKa
metric.name: Ionized fraction fcation
Give only the figure.

Example entries and their recorded answers appear below.
## Input # Ionized fraction fcation lookup, item "COCCCC/C(=N\OCCN)c1ccc(C(F)(F)F)cc1"
## Output 0.9901

## Input # Ionized fraction fcation lookup, item "C#CCN(C)[C@H](C)Cc1ccccc1"
## Output 0.5573

Next:
## Input # Ionized fraction fcation lookup, item CNCCC(Oc1ccc(C(F)(F)F)cc1)c1ccccc1 (centres unmarked)
## Output 0.9980

## Input # Ionized fraction fcation lookup, item "CN1CCN(C2=Nc3cc(Cl)ccc3Nc3ccccc32)CC1"
## Output 0.3339

## Input # Ionized fraction fcation lookup, item "O=c1n(CCCN2CCN(c3cccc(Cl)c3)CC2)nc2ccccn12"
## Output 0.3869

====

A collection of compounds and their measured fraction unbound at 5 h, 1 μM
Assay: Equilibrium dialysis, unbound fraction in plasma
Format: in vitro ADME, CD-1 mice
Conditions: CD-1, mouse, pH 7.4
Give only the figure.

Example entries and their recorded answers appear below.
## Input # fraction unbound at 5 h, 1 μM lookup, item "C=C[C@H]1C[N@@]2CC[C@H]1C[C@@H]2[C@@H](O)c1ccnc2ccc(OC)cc12"
## Output 0.286

## Input # fraction unbound at 5 h, 1 μM lookup, item CC(=O)CC(c1ccccc1)c1c(O)c2ccccc2oc1=O (stereo not drawn)
## Output 0.097

Continue with the compound presented below.
## Input # fraction unbound at 5 h, 1 μM lookup, item "CCOc1ccc(NC(C)=O)cc1"
## Output 0.701

====

Experiment: Ionized fraction at pH 7.4 calculated from pKa
Conditions: pH 7.4, Eq. (6), from literature acidic pKa
A collection of compounds and their measured Ionized fraction fanion
Give only the figure.

## Input # Ionized fraction fanion lookup, item CCN(CC)CCNC(=O)c1cc(Cl)c(N)cc1OC [Metoclopramide]
## Output 0.0001

## Input # Ionized fraction fanion lookup, item CCN1CCCC1CNC(=O)c1cc(S(N)(=O)=O)ccc1OC (centres unmarked) [Sulpiride]
## Output 0.0017

## Input # Ionized fraction fanion lookup, item CCCC(C)(COC(N)=O)COC(N)=O [Meprobamate]
## Output 0.0001

====

Assay: Ionized fraction at pH 7.4 calculated from pKa
Details: pH 7.4, Eq. (5), from literature basic pKa
metric.name: Ionized fraction fcation
Give only the figure.

Example entries and their recorded answers appear below.
## Input # Ionized fraction fcation lookup, item "O=C(CCCN1CCC(O)(c2ccc(Cl)cc2)CC1)c1ccc(F)cc1"
## Output 0.8882

## Input # Ionized fraction fcation lookup, item "Cc1ccc(-c2nc3ccc(C)cn3c2CC(=O)N(C)C)cc1"
## Output 0.2403

## Input # Ionized fraction fcation lookup, item "CN(C)CCCN1c2ccccc2Sc2ccc(Cl)cc21"
## Output 0.9901

## Input # Ionized fraction fcation lookup, item "Cc1nc2n(c(=O)c1CCN1CCC(c3noc4cc(F)ccc34)CC1)CCCC2"
## Output 0.9091

Next:
## Input # Ionized fraction fcation lookup, item CCN(CC)CCNC(=O)c1cc(Cl)c(N)cc1OC [Metoclopramide]
## Output 0.9937

====

A collection of compounds and their measured Ionized fraction fcation
Experiment: Ionized fraction at pH 7.4 calculated from pKa
Conditions: pH 7.4, Eq. (5), from literature basic pKa
Give only the figure.

## Input # Ionized fraction fcation lookup, item CN(C)CCCC1(c2ccc(F)cc2)OCc2cc(C#N)ccc21 (centres unmarked) [Citalopram]
## Output 0.9937

Next:
## Input # Ionized fraction fcation lookup, item OCCOCCN1CCN(C(c2ccccc2)c2ccc(Cl)cc2)CC1 (centres unmarked) [Hydroxyzine]
## Output 0.3339

====

A collection of compounds and their measured Ionized fraction fanion
Assay: Ionized fraction at pH 7.4 calculated from pKa
Conditions: pH 7.4, Eq. (6), from literature acidic pKa
Give only the figure.

## Input # Ionized fraction fanion lookup, item CN1CC[C@]23c4c5ccc(O)c4O[C@H]2[C@@H](O)C=C[C@H]3[C@H]1C5 [Morphine]
## Output 0.0038

====

Assay: Ionized fraction at pH 7.4 calculated from pKa
Settings: pH 7.4, Eq. (5), from literature basic pKa
A collection of compounds and their measured Ionized fraction fcation
Give only the figure.

## Input # Ionized fraction fcation lookup, item "O=C1CC2(CCCC2)CC(=O)N1CCCCN1CCN(c2ncccn2)CC1"
## Output 0.5573

## Input # Ionized fraction fcation lookup, item "CNCCC=C1c2ccccc2CCc2ccccc21"
## Output 0.9980

## Input # Ionized fraction fcation lookup, item "CN[C@H]1CC[C@@H](c2ccc(Cl)c(Cl)c2)c2ccccc21"
## Output 0.9921

## Input # Ionized fraction fcation lookup, item COC(=O)C(c1ccccc1)C1CCCCN1 (stereo not drawn) [Methylphenidate]
## Output 0.9994

## Input # Ionized fraction fcation lookup, item "Fc1ccc([C@@H]2CCNC[C@H]2COc2ccc3c(c2)OCO3)cc1"
## Output 0.9987

## Input # Ionized fraction fcation lookup, item "CN1CC[C@]23c4c5ccc(O)c4O[C@H]2[C@@H](O)C=C[C@H]3[C@H]1C5"
## Output 0.8882

## Input # Ionized fraction fcation lookup, item COc1ccc(C(CN(C)C)C2(O)CCCCC2)cc1 (stereo not drawn)
## Output 0.9876

## Input # Ionized fraction fcation lookup, item "CN(C)CCC=C1c2ccccc2C=Cc2ccccc21"
## Output 0.9844

## Input # Ionized fraction fcation lookup, item "CCC(=O)O[C@](Cc1ccccc1)(c1ccccc1)[C@H](C)CN(C)C"
## Output 0.9844

====

A collection of compounds and their measured Ionized fraction fanion
Assay: Ionized fraction at pH 7.4 calculated from pKa
Conditions: pH 7.4, Eq. (6), from literature acidic pKa
Give only the figure.

Example entries and their recorded answers appear below.
## Input # Ionized fraction fanion lookup, item NC(=O)N1c2ccccc2C=Cc2ccccc21 [Carbamazepine]
## Output 0.0003

## Input # Ionized fraction fanion lookup, item CCCC(C)(COC(N)=O)COC(=O)NC(C)C (stereo not shown) [Carisoprodol]
## Output 0.0003

## Input # Ionized fraction fanion lookup, item CCCC(C)C1(CC)C(=O)NC(=S)NC1=O (stereo not shown) [Thiopental]
## Output 0.2847

Next:
## Input # Ionized fraction fanion lookup, item O=C1NC(=O)C(c2ccccc2)(c2ccccc2)N1 [Phenytoin]
## Output 0.1118

Source: paper PMC10828645
